Experiment: AUC in guinea pig at 0.2 mg/kg, po
Assay type: ADME, organism-based, Cavia porcellus
Design: dose 0.2 mg/kg, route oral
Details: plasma
reported property: AUC (ng·h/mL)
All answers are understood in ng·h/mL, so give the number only.

Query :: Indicate the recorded AUC value for this compound: CS(=O)(=O)Nc1cc([C@@H](O)CNCCCCCCCCCN2CCC(OC(=O)Nc3ccccc3-c3ccc(O)c(Cl)c3)CC2)ccc1O
Result :: 920

====

Test: Clearance in rat at 0.2 mg/kg, po
Format: ADME, organism-based
Parameters: dose 0.2 mg/kg, route oral
Details: in vivo
reported property: CL/F (mL/min/kg)
All answers are understood in mL/min/kg, so give the number only.

Query :: Indicate the recorded CL/F value for this compound: CS(=O)(=O)Nc1cc([C@@H](O)CNCCCCCCCCCN2CCC(OC(=O)Nc3ccccc3-c3ccc(O)c(Cl)c3)CC2)ccc1O
Result :: 14
